The values you see were collected from the RepoRT retention time repository (doi:10.1016/j.chroma.2019.01.023).

- Experiment summary: RP, Phenomenex Kinetex C18, 150 × 2.1 mm, 1.7 µm, 30 °C, 0.3 mL/min, estimated dead time 1.1 min; A: water + 0.1% formic acid, pH 3; B: acetonitrile + 0.1% formic acid, pH 3; gradient (min/%B) 0/2 14/100 17/100 17.1/2 25/2
- Applied conditions: stereoisomer not certain
The label depends only on LC retention time: Satisfied if it is at least 4 min, Not satisfied if it is smaller.

Is LC retention time at least 4 min? Consider O=C([O-])CCCCC(=O)[O-] [ADIPATE] Not satisfied

###

- Experiment summary: HILIC, Merck SeQuant ZIC-pHILIC, 150 × 2.1 mm, 5 µm, 40 °C, 0.3 mL/min, estimated dead time 1.1 min; A: acetonitrile; B: water + 2.8 mM ammonium formate, pH 9; gradient (min/%B) 0/5 1/5 10/51 13/51 13.1/5 20/5
- Applied conditions: stereoisomer not certain
The label depends only on LC retention time: met if it is at least 8 min, not met if it is smaller.

# count of solved cases: 8
Compound: NC(Cc1c[nH]c2ccc(O)cc12)C(=O)O (stereo not given) [5-HYDROXYTRYPTOPHAN]
Cat: met
--
Compound: NC(Cc1ccccc1)C(=O)O (stereo not given)
Cat: not met
--
Compound: O=c1[nH]cnc2c1ncn2C1OC(COP(=O)([O-])OP(=O)([O-])O)C(O)C1O (stereo not given) [INOSINE 5'-DIPHOSPHATE]
Cat: met
--
Compound: OCCc1c[nH]c2ccccc12
Cat: not met
--
Compound: CC12CCC(=O)C=C1CCC1C2C(O)CC2(C)C1CCC2(O)C(=O)CO (stereo not given)
Cat: not met
--
Compound: O=c1[nH]cnc2nc[nH]c12
Cat: not met
--
Compound: O=C(O)CC(O)(CC(=O)O)C(=O)O [CITRATE]
Cat: met
--
Compound: C=CC(=O)[O-] [2-PROPENOATE]
Cat: not met

Is LC retention time at least 8 min? Consider NC(CS(=O)O)C(=O)O (stereo not given) met

Is LC retention time at least 8 min? Consider O=C1OC(C(O)CO)C(O)=C1O (stereo not given) [ASCORBATE] met

Is LC retention time at least 8 min? Consider O=C(O)C(O)Cc1ccc(O)cc1 (stereo not given) [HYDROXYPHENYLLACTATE] not met

Is LC retention time at least 8 min? Consider CCC(NC(=O)CCC([NH3+])C(=O)[O-])C(=O)NCC(=O)[O-] (stereo not given) [OPHTHALMATE] met

Is LC retention time at least 8 min? Consider O=C(O)C(=O)Cc1ccccc1 [PHENYLPYRUVATE] not met

Is LC retention time at least 8 min? Consider O=C(O)CCCCCCCCC(=O)O [SEBACATE] not met

Is LC retention time at least 8 min? Consider `Nc1ccccc1O` not met

Is LC retention time at least 8 min? Consider Nc1ncnc2c1ncn2C1OC(CO)C(O)C1O (stereo not given) not met

Is LC retention time at least 8 min? Consider CC(=O)NC(CCCCN)C(=O)O (stereo not given) met

Is LC retention time at least 8 min? Consider CNC(CC(=O)O)C(=O)O (stereo not given) [N-METHYLASPARTATE] met

###

- Experiment summary: HILIC, Merck SeQuant ZIC-pHILIC, 150 × 2.1 mm, 5 µm, 40 °C, 0.3 mL/min, estimated dead time 1.1 min; A: acetonitrile; B: water + 2.8 mM ammonium formate, pH 9; gradient (min/%B) 0/5 1/5 10/51 13/51 13.1/5 20/5
- Applied conditions: stereoisomer not certain
Each item that follows carries a reported LC retention time.

As a guide, the following entries are already answered.
Compound: CNCC(O)c1ccc(O)c(O)c1 (stereo not drawn) [EPINEPHRINE]
Quantity measured: LC retention time
Test value: 2.03 min
//
Compound: NC(=O)c1ccccc1O [SALICYLAMIDE]
Quantity measured: LC retention time
Test value: 1.46 min
//
Compound: O=C(O)Cc1ccc(O)cc1 [P-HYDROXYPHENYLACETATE]
Quantity measured: LC retention time
Test value: 5.76 min

Determine from records and report LC retention time for Nc1ncnc2c1ncn2C1OC(CO)C2OP(=O)(O)OC21 (stereo not drawn) [ADENOSINE 2',3'-CYCLIC PHOSPHATE] 6.94 min

Determine from records and report LC retention time for Cn1cncc1CC(NC(=O)CCN)C(=O)O (stereo not drawn) 10.1 min

Determine from records and report LC retention time for `N[C@@H](Cc1ccc(O)c(O)c1)C(=O)O` 9.15 min

Determine from records and report LC retention time for Nc1ncnc2c1ncn2C1CC(O)C(COP(=O)(O)OP(=O)(O)OP(=O)(O)O)O1 (stereo not drawn) [DEOXYADENOSINE TRIPHOSPHATE] 10.2 min

Determine from records and report LC retention time for Cc1cc2nc3c(=O)[nH]c(=O)nc-3n(CC(O)C(O)C(O)CO)c2cc1C (stereo not drawn) 5.9 min

Determine from records and report LC retention time for NCCOP(=O)(O)O [ETHANOLAMINE PHOSPHATE] 9.23 min

Determine from records and report LC retention time for Nc1nc2c(ncn2C2OC(COP(=O)(O)OP(=O)(O)OC3OC(CO)C(O)C(O)C3O)C(O)C2O)c(=O)[nH]1 (stereo not drawn) [GUANOSINE DIPHOSPHATE MANNOSE] 10.2 min

Determine from records and report LC retention time for `NCCS(=O)(=O)O` 9.1 min

Determine from records and report LC retention time for O=C(O)C(=O)Cc1c[nH]c2ccccc12 [INDOLE-3-PYRUVATE] 5.17 min

Determine from records and report LC retention time for CCCCCCCCC(=O)[O-] [NONANOATE] 5.16 min

Determine from records and report LC retention time for CC(=O)N1CCCC1C(=O)O (stereo not drawn) 6.05 min

Determine from records and report LC retention time for CC(O)(CCO)CC(=O)[O-] (stereo not drawn) [MEVALONATE] 6.07 min

Determine from records and report LC retention time for O=C(O)C1CCCN1 (stereo not drawn) 7.67 min

###

- Experiment summary: HILIC, Merck SeQuant ZIC-pHILIC, 150 × 2.1 mm, 5 µm, 40 °C, 0.3 mL/min, estimated dead time 1.1 min; A: acetonitrile; B: water + 2.8 mM ammonium formate, pH 9; gradient (min/%B) 0/5 1/5 10/51 13/51 13.1/5 20/5
- Applied conditions: stereoisomer not certain
Each item that follows carries a reported LC retention time.
State just the number; it will be interpreted in min.

As a guide, the following entries are already answered.
Molecule: NC(=O)NC1NC(=O)NC1=O (stereo not drawn)
Quantity measured: LC retention time
Readout units: min
Test value: 7.96
//
Molecule: CC(CCC(=O)NCC(=O)O)C1CCC2C3C(O)CC4CC(O)CCC4(C)C3CC(O)C12C (stereo not drawn) [GLYCOCHOLATE]
Quantity measured: LC retention time
Readout units: min
Test value: 5.5
//
Molecule: CS(=N)(=O)CCC(N)C(=O)O (stereo not drawn)
Quantity measured: LC retention time
Readout units: min
Test value: 9.03
//
Molecule: CC(=O)NC(CC(C)C)C(=O)O (stereo not drawn)
Quantity measured: LC retention time
Readout units: min
Test value: 3.02
//
Molecule: O=C(O)C(O)CO (stereo not drawn) [GLYCERATE]
Quantity measured: LC retention time
Readout units: min
Test value: 7.98
//
Molecule: Nc1ccn(C2OC(CO)C3OP(=O)(O)OC32)c(=O)n1 (stereo not drawn) [CYTIDINE 2',3'-CYCLIC PHOSPHATE]
Quantity measured: LC retention time
Readout units: min
Test value: 8.06
//
Molecule: O=C(O)c1cccc(O)c1[O-] [2,3-DIHYDROXYBENZOATE]
Quantity measured: LC retention time
Readout units: min
Test value: 5.74
//
Molecule: O=C(O)C(O)COP(=O)(O)O (stereo not drawn) [3-PHOSPHOGLYCERATE]
Quantity measured: LC retention time
Readout units: min
Test value: 10.1
//
Molecule: Cc1cc2nc3c(=O)[nH]c(=O)nc-3n(CC(O)C(O)C(O)COP(=O)(O)OP(=O)(O)OCC3OC(n4cnc5c(N)ncnc54)C(O)C3O)c2cc1C (stereo not drawn)
Quantity measured: LC retention time
Readout units: min
Test value: 8.07
//
Molecule: O=C(O)C(O)C(O)C(O)C(O)COP(=O)(O)O (stereo not drawn) [6-PHOSPHOGLUCONATE]
Quantity measured: LC retention time
Readout units: min
Test value: 10.3

Determine from records and report LC retention time for COc1cc(C=CC(=O)O)ccc1O [FERULATE] 3.78

Determine from records and report LC retention time for C[N+](C)(C)CCOP(=O)(O)OP(=O)([O-])OCC1OC(n2ccc(N)nc2=O)C(O)C1O (stereo not drawn) 8.89

Determine from records and report LC retention time for Cc1ncc(CO)c(C(=O)O)c1O [4-PYRIDOXATE] 1.69

Determine from records and report LC retention time for Nc1nc2c(ncn2C2OC(CO)C(O)C2O)c(=O)[nH]1 (stereo not drawn) 7.76
